The reported measurements were obtained from patent US20240116985A1.

target: full-length beta-Catenin (Uniprot ID P35222) (Homo sapiens (Human)) (UniProt P35222); assay: fluorescence polarization competition; displacement of 5FAM-TCF4(10-53) from full-length beta-catenin
Sequence (P35222 whole entry): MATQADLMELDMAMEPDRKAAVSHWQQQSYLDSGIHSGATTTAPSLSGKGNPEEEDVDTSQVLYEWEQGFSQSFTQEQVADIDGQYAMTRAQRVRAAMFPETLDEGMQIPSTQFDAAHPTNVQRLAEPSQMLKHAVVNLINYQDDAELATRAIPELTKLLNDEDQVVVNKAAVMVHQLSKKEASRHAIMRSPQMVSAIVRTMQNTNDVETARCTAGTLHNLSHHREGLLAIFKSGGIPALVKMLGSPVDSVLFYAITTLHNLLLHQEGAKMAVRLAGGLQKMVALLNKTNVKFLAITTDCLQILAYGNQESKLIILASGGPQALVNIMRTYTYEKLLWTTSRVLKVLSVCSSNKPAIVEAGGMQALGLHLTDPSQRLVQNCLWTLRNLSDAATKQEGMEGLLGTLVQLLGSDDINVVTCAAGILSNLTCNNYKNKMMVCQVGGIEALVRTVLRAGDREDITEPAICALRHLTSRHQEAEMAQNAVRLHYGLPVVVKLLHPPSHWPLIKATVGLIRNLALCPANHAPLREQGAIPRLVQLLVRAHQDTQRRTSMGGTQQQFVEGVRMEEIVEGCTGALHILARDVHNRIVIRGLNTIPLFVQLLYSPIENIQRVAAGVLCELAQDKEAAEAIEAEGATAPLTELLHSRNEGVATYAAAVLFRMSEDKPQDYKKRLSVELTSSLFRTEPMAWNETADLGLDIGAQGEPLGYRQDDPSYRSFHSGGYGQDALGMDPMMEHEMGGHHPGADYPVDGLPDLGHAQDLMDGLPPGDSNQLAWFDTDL
Starred links: 1 amine or outer side, 2 acyl side, 3 side chain; linkers in the order of their positions; H or OH if unused. Positions of bridges follow the written chain, without caps; N, C: chain ends. Non-standard residues stand in square brackets, D forms with d. Groups on a side chain read outwards from the residue. Primed or numbered codes have the meaning given here. No end group written: not given here. *: point of attachment. PyrS2″ = (S)-3-amino-1-((pent-4-en-1-yloxy)carbonyl)pyrrolidine-3-carboxylic acid (stapling residue), C=CCCCOC(=O)N1CC[C@@](N[*:1])(C(=O)[*:2])C1; B5(4) = 2,2-bis(4-pentenyl)glycine = 2-amino-2-(pent-4-en-1-yl)hept-6-enoic acid (stitching residue), C=CCCCC(CCCC=C)(N[*:1])C(=O)[*:2]; B5(5) = 2,2-bis(4-pentenyl)glycine, 2-amino-2-(pent-4-en-1-yl)hept-6-enoic acid (stitching residue), C=CCCCC(CCCC=C)(N[*:1])C(=O)[*:2]; (CH2NMe2)4SEF = (S)-2-amino-3-(4-(3-(dimethylamino)prop-1-yn-1-yl)phenyl)propanoic acid, CN(C)CC#Cc1ccc(C[C@H](N[*:1])C(=O)[*:2])cc1; PyrS2 = (S)-3-amino-1-((pent-4-en-1-yloxy)carbonyl)pyrrolidine-3-carboxylic acid, C=CCCCOC(=O)N1CC[C@@](N[*:1])(C(=O)[*:2])C1; Lithocholoyl = C[C@H](CCC(=O)*)[C@H]1CC[C@H]2[C@@H]3CC[C@@H]4C[C@H](O)CC[C@]4(C)[C@H]3CC[C@]12C; B5(3) = 2,2-bis(4-pentenyl)glycine (stitching residue), C=CCCCC(CCCC=C)(N[*:1])C(=O)[*:2]; Me3AdamantC = 3,5,7-trimethyladamantane-1-carbonyl, CC12CC3(C)CC(C)(C1)CC(C(=O)*)(C2)C3; Bta = N[C@@H](Cc1csc2ccccc12)C(=O)O; αAllylPro = C=CC[C@@]1(C(=O)O)CCCN1; tBuAla = CC(C)(C)C[C@H](N)C(=O)O; 3Thi = N[C@@H](Cc1ccsc1)C(=O)O; PEG2′ = not defined here
Outcome measure: log10(IC50) (log10 of the value in nM)
// units: nM (pre-log); metric: IC50; scale: log10

Kindly indicate its recorded log10(IC50). Item: Ac-[αAllylPro]D[tBuAla][B5(4)]DD[(CH2NMe2)4SEF]AFL[PyrS2]F[Bta]Q (staple 1-4, 4-11) [I-1467]
1.08

Kindly indicate its recorded log10(IC50). Item: Ac-[αAllylPro]D[tBuAla][B5(3)]DDAAFS[PyrS2″]F[Bta]S-NH2 (staple 1-4, 4-11) [I-1099]
0.95

Kindly indicate its recorded log10(IC50). Item: Ac-[αAllylPro]D[tBuAla][B5(5)]DDAK(Me3AdamantC)FL[PyrS2″][3Thi][Bta]Q-NH2 (staple 1-4, 4-11) [I-1475]
2.05

Kindly indicate its recorded log10(IC50). Item: Ac-[αAllylPro]D[tBuAla][B5(4)]DDAAFL[PyrS2″][3Thi][Bta]QK([PEG2′-Lithocholoyl])-NH2 (staple 1-4, 4-11) [I-1478]
1.88

Kindly indicate its recorded log10(IC50). Item: Ac-[αAllylPro]D[tBuAla][B5(5)]DDAK(Lithocholoyl)FL[PyrS2][3Thi][Bta]Q-NH2 (staple 1-4, 4-11) [I-1473]
2.35
